# Tested on: Sp2/0 cells
# measurementNotes: Effect of replacement compounds on the growth of Sp2/0 cells in CD Hybridoma medium without transferrin, three passages
# Format: cell-based
# studyConditions: 50 μM; third passage
Below, each entry is listed with its recorded mean percentage of control growth.
metricName: mean percentage of control growth

- Cc1occc(=O)c1O.[Cl][Fe]([Cl])[Cl]: 71 percentage of control growth
- [Cl][Fe]([Cl])[Cl] [Ferric Chloride, reference compound]: 73 percentage of control growth
- Cc1occc(=O)c1O [3-Hydroxy-2-Methyl-4-Pyrone (Maltol), 3-Hydroxy-2-Methyl-4-Pyrone]: 0 percentage of control growth
- CCc1occc(=O)c1O [2-Ethyl-3-Hydroxy-4-Pyrone]: 75 percentage of control growth
- O=C(O)CN(CC(=O)O)CC(=O)O: 0 percentage of control growth
- O=S(=O)([O-])[O-].[Fe+2] [Ferrous Sulfate, reference compound]: 103 percentage of control growth
- O=c1cc(CO)occ1O: 0 percentage of control growth
- O=C(O)c1ccccn1.[Cl][Fe]([Cl])[Cl]: 30 percentage of control growth
- [Cl][Fe]([Cl])[Cl].[O-][n+]1cccc(O)c1: 54 percentage of control growth
- O=[N+]([O-])c1ncccc1O.[Cl][Fe]([Cl])[Cl]: 62 percentage of control growth

###

Readings of mean percentage of control growth for the listed compounds
# Tested on: CHO cells
# measurementNotes: Effect of replacement compounds on the growth of CHO cells in CD CHO medium without transferrin, three passages
# Format: cell-based, Chinese hamster
# studyConditions: 100 μM; third passage
metricName: mean percentage of control growth

- [Cl][Fe]([Cl])[Cl] [Ferric Chloride, reference compound]: 101 percentage of control growth
- O=C(O)c1ccccn1.[Cl][Fe]([Cl])[Cl]: 100 percentage of control growth
- [Cl][Fe]([Cl])[Cl].[O-][n+]1cccc(O)c1: 101 percentage of control growth
- O=C(O)c1cccc(O)c1O.[Cl][Fe]([Cl])[Cl] [2,3-Dihydrobenzoic Acid•Ferric Chloride]: 0 percentage of control growth
- O=S(=O)([O-])[O-].[Fe+2] [Ferrous Sulfate, reference compound]: 38 percentage of control growth
- CCc1occc(=O)c1O [2-Ethyl-3-Hydroxy-4-Pyrone]: 113 percentage of control growth
- [Cl][Fe]([Cl])[Cl].c1ccc(Nc2ccccn2)nc1 [2,2-Dipyridylamine•Ferric Chloride]: 65 percentage of control growth
- O=c1cc(CO)occ1O: 0 percentage of control growth

###

# Tested on: 293 cells
# measurementNotes: Effect of replacement compounds on the growth of 293 cells in 293 SFM without transferrin, three passages
# Type: cell-based, human
# studyConditions: 50 μM; third passage; control 5 μg/mL human holo-transferrin
# Procedure: Semi-confluent adherent cultures of 293 Cells (ATCC, CRL 1573) are readily adapted to suspension culture. […] The initial seeding density of the 293 cells after conversion to suspension culture is 1×10^6 cells/mL. […] After several passages in suspension culture, the maximum achievable density can be determined. […] Except where noted, replacement compounds were evaluated either alone or in combination with ferric chloride or ferrous sulfate at 25 μM, 50 μM and 100 μM. […]
As shown below, each of these compounds has a reported mean percentage of control growth value.
metricName: mean percentage of control growth

• O=C(O)c1ccccn1.O=S(=O)([O-])[O-].[Fe+2] = 48 percentage of control growth
• [O-][n+]1cccc(O)c1 [3-Hydroxypyridine-N-Oxide] = 4 percentage of control growth
• [Cl][Fe]([Cl])[Cl].[O-][n+]1cccc(O)c1 = 72 percentage of control growth
• CCc1occc(=O)c1O [2-Ethyl-3-Hydroxy-4-Pyrone] = 120 percentage of control growth
• O=S(=O)([O-])[O-].[Fe+2] [Ferrous Sulfate, reference compound] = 60 percentage of control growth
• CC(=O)N[C@@H](CS)C(=O)O.[Cl][Fe]([Cl])[Cl] [N-Acetyl-Cysteine•Ferric Chloride] = 82 percentage of control growth
• [Cl][Fe]([Cl])[Cl].c1ccc(Nc2ccccn2)nc1 [2,2-Dipyridylamine•Ferric Chloride] = 96 percentage of control growth
• [Cl][Fe]([Cl])[Cl].c1ccc(-c2ccccn2)nc1 [2,2-Dipyridyl•Ferric Chloride] = 96 percentage of control growth
• O=S(=O)([O-])[O-].[Fe+2].[O-][n+]1cccc(O)c1 = 58 percentage of control growth
• Cc1occc(=O)c1O [3-Hydroxy-2-Methyl-4-Pyrone (Maltol), 3-Hydroxy-2-Methyl-4-Pyrone] = 28 percentage of control growth
• [Cl][Fe]([Cl])[Cl] [Ferric Chloride, reference compound] = 91 percentage of control growth

###

Recorded mean percentage of control growth, one value per entry.
# Tested on: 293 cells
# measurementNotes: Effect of replacement compounds on the growth of 293 cells in 293 SFM without transferrin, three passages
# Type: cell-based, human
# studyConditions: 100 μM; third passage; control 5 μg/mL human holo-transferrin
metricName: mean percentage of control growth

• Cc1occc(=O)c1O [3-Hydroxy-2-Methyl-4-Pyrone (Maltol), 3-Hydroxy-2-Methyl-4-Pyrone] = 81 percentage of control growth
• CC(=O)N[C@@H](CS)C(=O)O.[Cl][Fe]([Cl])[Cl] [N-Acetyl-Cysteine•Ferric Chloride] = 52 percentage of control growth
• [Cl][Fe]([Cl])[Cl].c1ccc(Nc2ccccn2)nc1 [2,2-Dipyridylamine•Ferric Chloride] = 101 percentage of control growth
• [Cl][Fe]([Cl])[Cl].c1ccc(-c2ccccn2)nc1 [2,2-Dipyridyl•Ferric Chloride] = 0 percentage of control growth
• [Cl][Fe]([Cl])[Cl].[O-][n+]1cccc(O)c1 = 81 percentage of control growth
• CCc1occc(=O)c1O [2-Ethyl-3-Hydroxy-4-Pyrone] = 126 percentage of control growth
• O=S(=O)([O-])[O-].[Fe+2] [Ferrous Sulfate, reference compound] = 41 percentage of control growth
• O=S(=O)([O-])[O-].[Fe+2].[O-][n+]1cccc(O)c1 = 0 percentage of control growth
• O=C(O)c1ccccn1.O=S(=O)([O-])[O-].[Fe+2] = 0 percentage of control growth
• [Cl][Fe]([Cl])[Cl] [Ferric Chloride, reference compound] = 109 percentage of control growth
• [O-][n+]1cccc(O)c1 [3-Hydroxypyridine-N-Oxide] = 4 percentage of control growth
